These measurements were taken from ChEMBL document CHEMBL2029248.

target: Histamine H3 receptor (Homo sapiens, UniProt Q9Y5N1); assay: Displacement of [3H]N-alpha-methylhistamine from recombinant human histamine H3 receptor expressed in HEK cell membranes after 30 mins by scintillation counting; design: species or system HEK293
Sequence (Q9Y5N1 whole entry): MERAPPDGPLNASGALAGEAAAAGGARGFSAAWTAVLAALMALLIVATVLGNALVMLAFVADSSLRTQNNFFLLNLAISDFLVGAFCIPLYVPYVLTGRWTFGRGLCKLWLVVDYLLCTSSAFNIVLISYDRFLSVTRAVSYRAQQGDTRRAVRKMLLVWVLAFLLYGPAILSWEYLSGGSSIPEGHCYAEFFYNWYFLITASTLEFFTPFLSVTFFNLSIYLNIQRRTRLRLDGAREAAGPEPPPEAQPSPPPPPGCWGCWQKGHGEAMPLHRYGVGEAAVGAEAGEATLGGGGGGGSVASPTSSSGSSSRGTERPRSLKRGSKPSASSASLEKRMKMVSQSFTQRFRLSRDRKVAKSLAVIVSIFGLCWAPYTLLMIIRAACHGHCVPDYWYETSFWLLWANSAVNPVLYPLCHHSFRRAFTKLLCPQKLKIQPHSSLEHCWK
Ki vs 20 nM: less than gives Y; not less than gives N.

>  <Structure notation>
Cc1nnc(-c2cccc(-c3nnc(N4CCC(N5CCCCC5)CC4)s3)c2)o1

>  <Assigned class>
N

$$$$

Dear colleague, could you confirm whether Ki of O=c1ccc2cc(-c3nnc(N4CCC(N5CCCCC5)CC4)s3)ccc2[nH]1 falls below 20 nM? Thanks. Y

Dear colleague, could you confirm whether Ki of Cc1nc2cc(-c3nnc(N4CCC(N5CCCCC5)CC4)s3)ccc2o1 falls below 20 nM? Thanks. N

###

pIC50: −log10 of the molar value.
Entries below carry reported pIC50 on Cytochrome P450 2C9 (Homo sapiens).
Sequence (P11712 whole entry): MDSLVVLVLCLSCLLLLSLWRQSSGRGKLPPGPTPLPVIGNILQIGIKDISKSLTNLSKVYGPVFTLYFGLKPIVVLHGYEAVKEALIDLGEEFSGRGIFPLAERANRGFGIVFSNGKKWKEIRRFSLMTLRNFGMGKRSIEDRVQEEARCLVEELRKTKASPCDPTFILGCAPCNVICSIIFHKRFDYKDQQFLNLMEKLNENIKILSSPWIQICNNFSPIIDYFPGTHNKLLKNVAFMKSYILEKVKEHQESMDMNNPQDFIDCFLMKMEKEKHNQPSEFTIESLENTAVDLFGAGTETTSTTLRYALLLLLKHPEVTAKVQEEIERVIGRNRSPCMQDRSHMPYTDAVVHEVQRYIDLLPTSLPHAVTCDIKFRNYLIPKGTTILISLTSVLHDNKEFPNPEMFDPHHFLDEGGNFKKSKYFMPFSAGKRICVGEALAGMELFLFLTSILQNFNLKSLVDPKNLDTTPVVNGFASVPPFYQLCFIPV

>  <Structure notation>
O=c1ccnc2ccc(-c3nnc(N4CCC(N5CCCCC5)CC4)s3)cn12

>  <pIC50>
< 4.70

$$$$

Continue with the compound presented below.
Fill: pIC50 (Cytochrome P450 2C9 (Homo sapiens)) for this compound CC(=O)c1cccc(-c2nnc(N3CCC(N4CCCCC4)CC3)s2)c1 < 4.70

###

As shown below, each of these compounds has a reported concentration at 4 h value.
assay: Drug uptake in rat brain at 10 mg/kg, po after 4 hrs; format: ADME, organism-based; set-up: dose 10 mg/kg, route oral; conditions: read-out: Drug uptake

>  <Structure notation>
Cc1nnc2ccc(-c3nnc(N4CCC(N5CCCCC5)CC4)s3)cn12

>  <concentration at 4 h>
25 ng/g

$$$$
>  <Structure notation>
O=c1ccnc2ccc(-c3nnc(N4CCC(N5CCCCC5)CC4)s3)cn12

>  <concentration at 4 h>
1340 ng/g

$$$$
>  <Structure notation>
c1cnc2c(-c3nnc(N4CCC(N5CCCCC5)CC4)s3)cccc2c1

>  <concentration at 4 h>
110 ng/g

$$$$
>  <Structure notation>
O=c1ccnc2c(-c3nnc(N4CCC(N5CCCCC5)CC4)s3)cccn12

>  <concentration at 4 h>
2670 ng/g

$$$$
>  <Structure notation>
Cc1nnc(-c2cccc(-c3nnc(N4CCC(N5CCCCC5)CC4)s3)c2)o1

>  <concentration at 4 h>
1290 ng/g

$$$$

Continue with the compound presented below.
// fetch concentration at 4 h given entry O=c1ccoc2ccc(-c3nnc(N4CCC(N5CCCCC5)CC4)s3)cc12 268 ng/g

###

target: Histamine H3 receptor (Homo sapiens); assay: Displacement of [3H]N-alpha-methylhistamine from recombinant human histamine H3 receptor expressed in HEK cell membranes after 30 mins by scintillation counting
As shown below, each of these compounds has a reported pKi value.
// pKi here means minus log10 of the molar concentration (mol/L)

// fetch pKi given entry CN(C)C(=O)c1cccc(-c2nnc(N3CCC(N4CCCCC4)CC3)s2)c1 6.72

// fetch pKi given entry O=c1ccc2ccc(-c3nnc(N4CCC(N5CCCCC5)CC4)s3)cc2[nH]1 7.44

// fetch pKi given entry O=c1ccc2c(-c3nnc(N4CCC(N5CCCCC5)CC4)s3)cccc2[nH]1 7.70

// fetch pKi given entry Cc1cc(=O)c2cc(-c3nnc(N4CCC(N5CCCCC5)CC4)s3)ccc2o1 7.08

// fetch pKi given entry Cc1nnc2ccc(-c3nnc(N4CCC(N5CCCCC5)CC4)s3)cn12 8.47

###

molecular target: Histamine H3 receptor (Homo sapiens); test: Displacement of [3H]N-alpha-methylhistamine from recombinant human histamine H3 receptor expressed in HEK cell membranes after 30 mins by scintillation counting
Readout: Ki (nM)
Numbers only here, please. The scale is nM.

The cases that follow already have their Ki on record.
>  <Structure notation>
CC(=O)Nc1cccc(-c2nnc(N3CCC(N4CCCCC4)CC3)s2)c1

>  <Tested system>
Histamine H3 receptor (Homo sapiens)

>  <Ki [nM]>
16.5

$$$$
>  <Structure notation>
c1cnc2c(-c3nnc(N4CCC(N5CCCCC5)CC4)s3)cccc2c1

>  <Tested system>
Histamine H3 receptor (Homo sapiens)

>  <Ki [nM]>
4.6

$$$$

// fetch Ki given entry c1cc(-c2nnc(N3CCC(N4CCCCC4)CC3)s2)c2ccncc2c1 17.8
